- Test target: UniProtKB P42345
- Protocol summary: mTOR kinase assay (TR-FRET, for comparative purposes)
- Type: biochemical
- Setup conditions: read-out: mTOR % inhibition @ 1 μM; 1 μM test compound; mean inhibition values
Listing: inhibition at 1 µM of selected molecules
Numbers only; they are read as %.

{"columns": ["Molecule", "inhibition at 1 µM [%]"],
 "data": [
  ["COc1cccc2cc(-c3c(CN4CCNC(=O)C4)cn4ncnc(N)c34)sc12 [Example 30]", 1.6],
  ["COc1cc(C)cc2cc(-c3c(COCC(=O)O)cn4ncnc(N)c34)sc12 [Example 5]", 2.7],
  ["COc1cc(C)cc2cc(-c3c(CNCC(N)=O)cn4ncnc(N)c34)sc12 [Example 16]", 8.8],
  ["COc1cc(C)cc2cc(-c3c(CN4CCOCC4)cn4ncnc(N)c34)sc12 [Example 23]", 2]
]}

Alright, here's another molecule for you.
GET inhibition at 1 µM | system: UniProtKB P42345 | item: COc1cc(C)cc2cc(-c3c(COCC(N)=O)cn4ncnc(N)c34)sc12 [Example 6] 11.3

###

compounds and their reported inhibition at 1 µM
- Test target: human mTOR (Homo sapiens (Human), UniProt P42345)
- Sequence (P42345 1360-2549): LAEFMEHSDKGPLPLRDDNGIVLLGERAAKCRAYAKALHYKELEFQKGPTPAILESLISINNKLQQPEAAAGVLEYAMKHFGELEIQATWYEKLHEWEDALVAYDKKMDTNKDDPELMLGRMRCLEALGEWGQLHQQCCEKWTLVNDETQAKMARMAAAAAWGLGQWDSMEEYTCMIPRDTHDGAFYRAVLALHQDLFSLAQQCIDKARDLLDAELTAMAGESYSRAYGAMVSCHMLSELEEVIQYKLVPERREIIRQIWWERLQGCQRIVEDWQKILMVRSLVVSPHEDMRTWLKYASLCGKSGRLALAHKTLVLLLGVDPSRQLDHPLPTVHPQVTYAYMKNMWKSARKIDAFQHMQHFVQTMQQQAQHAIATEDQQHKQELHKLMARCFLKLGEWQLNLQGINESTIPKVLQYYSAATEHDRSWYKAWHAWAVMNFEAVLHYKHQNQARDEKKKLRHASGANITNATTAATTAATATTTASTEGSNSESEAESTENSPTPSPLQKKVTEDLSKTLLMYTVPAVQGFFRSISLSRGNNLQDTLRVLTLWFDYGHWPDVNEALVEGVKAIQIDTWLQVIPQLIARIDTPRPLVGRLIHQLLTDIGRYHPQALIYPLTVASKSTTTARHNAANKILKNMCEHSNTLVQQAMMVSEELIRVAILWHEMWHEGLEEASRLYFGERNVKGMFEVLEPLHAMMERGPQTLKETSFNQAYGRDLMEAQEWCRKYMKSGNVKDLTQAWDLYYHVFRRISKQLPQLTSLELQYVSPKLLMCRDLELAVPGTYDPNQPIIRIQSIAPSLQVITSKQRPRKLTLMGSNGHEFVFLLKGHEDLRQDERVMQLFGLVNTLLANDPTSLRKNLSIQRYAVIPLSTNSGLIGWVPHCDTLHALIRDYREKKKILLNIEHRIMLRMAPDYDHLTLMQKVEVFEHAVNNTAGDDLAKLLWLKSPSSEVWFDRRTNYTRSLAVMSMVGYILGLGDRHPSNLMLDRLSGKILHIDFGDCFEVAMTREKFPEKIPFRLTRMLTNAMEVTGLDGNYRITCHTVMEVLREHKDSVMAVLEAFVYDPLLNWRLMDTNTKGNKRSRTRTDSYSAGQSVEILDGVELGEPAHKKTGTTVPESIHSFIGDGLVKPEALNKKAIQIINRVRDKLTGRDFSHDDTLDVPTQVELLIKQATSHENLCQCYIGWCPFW
- Protocol summary: mTOR kinase assay (TR-FRET, for comparative purposes)
- Type: biochemical
- Setup conditions: read-out: mTOR % inhibition @ 1 μM; 1 μM test compound; mean inhibition values
Structures can show the parent of a compound that is named as a salt.

{"columns": ["Compound", "inhibition at 1 µM"],
 "data": [
  ["COc1cc(C)cc2cc(-c3c(CO[C@@H](C)CO)cn4ncnc(N)c34)sc12", "2.5%"],
  ["Cc1ccc2sc(-c3c(CN4CCNC(=O)C4)cn4ncnc(N)c34)cc2c1", "0.6%"],
  ["COc1cc(C)cc2cc(-c3c(COCCN)cn4ncnc(N)c34)sc12 [Example 8, dihydrochloride]", "4.7%"]
]}

Please indicate inhibition at 1 µM recorded for CCOC(=O)COCc1cn2ncnc(N)c2c1-c1cc2cc(C)cc(OC)c2s1 8.4%

###

- Test target: human mTOR (Homo sapiens (Human), UniProt P42345)
- Protocol summary: mTOR kinase assay (TR-FRET, for comparative purposes)
- Assay type: biochemical
- Setup conditions: read-out: mTOR % inhibition @ 1 μM
- Description: mTOR inhibitory activity of the compounds of the present invention was quantified employing the TR-FRET based mTOR assay as described in the following paragraphs: Recombinant fusion tagged mTOR protein [glutathione-S-transferase (GST) fused to human mTOR amino acids from 1360 to 2549], expressed in insect cells and purified by glutathione-sepharose affinity chromatography, was purchased from Invitrogen (Cat.-No. 4753) and used as enzyme. […]
Structures can show the parent of a compound that is named as a salt.
Assay endpoint: inhibition at 1 µM
# answer = value followed by unit

These recorded examples may help you get a feel for the data.
{"columns": ["Compound", "Obs value"],
 "data": [
  ["COc1cc(C)cc2cc(-c3c(CNCCO)cn4ncnc(N)c34)sc12 [Example 10, dihydrochloride]", "10.3%"],
  ["COc1cc(C)cc2cc(-c3c(CN[C@H]4CCNC4=O)cn4ncnc(N)c34)sc12 [Example 27, dihydrochloride]", "5%"],
  ["COc1cc(C)cc2cc(-c3c(CN4CCN(C(=O)OC(C)(C)C)CC4)cn4ncnc(N)c34)sc12 [Example 22, trifluoroacetate]", "1.6%"],
  ["COc1cc(C)cc2cc(-c3c(COCCCO)cn4ncnc(N)c34)sc12 [Example 1, hydrochloride]", "1.9%"],
  ["COc1cc(C)cc2cc(-c3c(CNCCNC(C)=O)cn4ncnc(N)c34)sc12 [Example 24, trifluoroacetate]", "0.3%"],
  ["COc1cc(C)cc2cc(-c3c(COCCO)cn4ncnc(N)c34)sc12 [Example 7, hydrochloride]", "4.7%"],
  ["CCOC(=O)CNCc1cn2ncnc(N)c2c1-c1cc2cc(C)cc(OC)c2s1 [Example 15, dihydrochloride]", "4%"]
]}

Tell me inhibition at 1 µM of COc1cc(C)cc2cc(-c3c(CN4CCCC4C(N)=O)cn4ncnc(N)c34)sc12 (racemic) [Example 19, dihydrochloride] when tested on human mTOR (Homo sapiens (Human), UniProt P42345). 1.8%
